Attribution: the supplement of paper PMC6555819

# Tested on: RARb:RXRa (NR concentration 270 nM, RXRa partner concentration 90 nM)
# test.name: PBM binding z-score (relative to random genomic background probes); higher = stronger binding; sequences stand for … in GC…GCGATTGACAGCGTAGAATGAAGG
PBM binding z-score: recorded values

Check out these entries, answers already filled in.
Consider the sequence shown here: GGTACAGGGTCAAGGCCAGAGTACGCGTATTGAT What is its recorded PBM binding z-score?
4.63

So what's the measured PBM binding z-score for this one? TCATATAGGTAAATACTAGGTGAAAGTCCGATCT
0.482

Would you kindly share the measured PBM binding z-score for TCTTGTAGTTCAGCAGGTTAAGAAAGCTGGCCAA ?
1.76

Looking for the measured PBM binding z-score of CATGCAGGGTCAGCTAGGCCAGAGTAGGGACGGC , can you help?
4.14

// query PBM binding z-score value for entry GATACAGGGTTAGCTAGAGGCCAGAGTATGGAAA
1.07

I would be grateful if you could share the reported PBM binding z-score for TAGCCTAGGCCAGATCGGGCCAGTATACGCTATA .
-0.396

What value of measured PBM binding z-score is listed for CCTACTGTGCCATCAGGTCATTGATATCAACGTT ?
2.25

Which PBM binding z-score reading was recorded for the sequence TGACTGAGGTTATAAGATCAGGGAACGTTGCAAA ?
1.15

For the sequence shown here, CATAGCAGGCCAATCTGGGTCACTCAAGGCTTGA , give the reported PBM binding z-score.
1.65

Give the measured PBM binding z-score of CCTAGCAGGCGAATCTGGGTCACTCAAGGCTTGA .
0.812

---
Requested field: PBM binding z-score. Item: TAGCCTAGGTGATGGGCCAGTATACCACGCGAAC
-0.281

PBM binding z-score for ACAGACAGGTCATGAAGGTAACTCAGGCTATCAT ?
3.9

Please give the measured PBM binding z-score for this sequence: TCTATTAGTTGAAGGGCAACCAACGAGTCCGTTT
1.46

###

Recorded measurements of PBM binding z-score, one per entry
# Tested on: THRa homodimer (NR concentration 90 nM)
# test.name: PBM binding z-score (relative to random genomic background probes); higher = stronger binding; sequences stand for … in GC…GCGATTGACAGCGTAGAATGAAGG
// return just the number, without any unit appended

Below are worked cases with known answers.
API: value(readout=PBM binding z-score, system=THRa homodimer (NR concentration 90 nM)) for record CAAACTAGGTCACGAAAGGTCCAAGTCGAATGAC
1.39

Request: PBM binding z-score, test system THRa homodimer (NR concentration 90 nM), entry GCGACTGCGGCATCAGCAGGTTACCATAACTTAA
0.0125

State its PBM binding z-score on THRa homodimer (NR concentration 90 nM): CCTACTGGGCCATTCAGAGGTCATTCATCATATG
1.51

Give recorded PBM binding z-score with THRa homodimer (NR concentration 90 nM) for the following sequence: TAGCCTAGGTCATGGGCCAGTAAACCACGCGAAC
1.12

Next:
Item: TCTTGTAGATCCGCAGGTTAAGAAAGCTGGCCAA Test system: THRa homodimer (NR concentration 90 nM) Read-out: PBM binding z-score Value: ?
-0.513

What measured PBM binding z-score is associated with GCTAGAAGGCCATTTGGGTCACTCAATGACGGGC on THRa homodimer (NR concentration 90 nM)?
0.686

// fetch THRa homodimer (NR concentration 90 nM) PBM binding z-score for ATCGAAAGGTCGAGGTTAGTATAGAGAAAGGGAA
0.341

Request - read-out PBM binding z-score | tested on THRa homodimer (NR concentration 90 nM) | sequence TCGAGTAGGTTACCAAAGGGGCATTCAGCTTTCT
-0.71

What PBM binding z-score appears in the records for this sequence with THRa homodimer (NR concentration 90 nM)? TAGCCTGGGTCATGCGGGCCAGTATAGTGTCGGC
-0.102

Tell me reported PBM binding z-score for TAGCCTCGGTCATGGGCCAGTATACCACGCGAAC , tested with THRa homodimer (NR concentration 90 nM).
-0.217

###

# System: LXRa:RXRa (NR concentration 270 nM, RXRa partner concentration 90 nM)
# test.name: PBM binding z-score (relative to random genomic background probes); higher = stronger binding; sequences stand for … in GC…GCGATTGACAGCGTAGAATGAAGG
measured.endpoint: PBM binding z-score
Reply with just the number.

Fill in the blank: the reported PBM binding z-score of TCATATAGGTAAGGGTGAAAGTCGAACGATATGA is ____.
0.803

Could you share which PBM binding z-score value was measured for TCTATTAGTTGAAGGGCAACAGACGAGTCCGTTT ?
0.613

Requested read-out: PBM binding z-score. Entry: GCTAGTTGGTCAGTAAAAGGTCTCACACCGGTCG
-0.0505

For the sequence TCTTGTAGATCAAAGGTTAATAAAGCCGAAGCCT , what PBM binding z-score is on record?
1.96

Returns the measured PBM binding z-score for the input sequence. Input: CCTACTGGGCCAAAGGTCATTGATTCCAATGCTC
5.3

New cases:
Give its PBM binding z-score value. Item: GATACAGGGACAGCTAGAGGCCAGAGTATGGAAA
-0.821

May I ask what PBM binding z-score has been recorded for AGAACGAGGGCAAGGAGTTGATAGCACGGGTGGC ?
0.0802

Which PBM binding z-score is listed for GGAACGAGGGCAAAGTTGATAGGATCTGTCGACG ?
1.05

Param item = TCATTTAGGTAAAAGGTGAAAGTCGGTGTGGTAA ; retrieve measured PBM binding z-score.
1.89

Consider the sequence GCGACTGGGGCATCAGCGGGTTACCATAACTTAA and give its measured PBM binding z-score.
-0.573

###

# Tested on: LXRa:RXRa (NR concentration 270 nM, RXRa partner concentration 90 nM)
# test.name: PBM binding z-score (relative to random genomic background probes); higher = stronger binding; sequences stand for … in GC…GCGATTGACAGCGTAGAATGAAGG
Consider the following partition of reported PBM binding z-score into named classes: category 1 (below 0.3), category 2 (0.3 to below 4), category 3 (4 or more)

A selection of reference data follows.
Which band does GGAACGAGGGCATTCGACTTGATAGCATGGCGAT fall in?
category 1

Lab note: which band did CCTAGTTGGTGAAGGTCACACACGCTATAGGTAC land in?
category 2

Which class is correct for the following sequence? CGTCCAAGGTCAAGGTCAGTGCAAGAGACTCGAA
category 3

Which class does GTACCAAGGTGAATAGGTCGTTGAAGAGTAGGCG fall in?
category 2

Using the reported PBM binding z-score, which band applies to CCTCGGAGGACAGAAGGTCCGAGCTGTCCGCTTT ?
category 1

Which bin, given its PBM binding z-score, does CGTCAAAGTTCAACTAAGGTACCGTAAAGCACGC occupy?
category 3

Looking at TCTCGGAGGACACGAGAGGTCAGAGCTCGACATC , which class would you pick?
category 2

The entry to classify is AGTCAACGTTCACTAGGTAACGTAAGATTCAGCT ; which class holds it?
category 1

Which category fits this record: CCTTACGGGTCAAGGTTATAGCTCGGGTGGTACG
category 2

Pick a category. Item: TTACCAAGGTGAAACGTCGTTGATGCACGCCTTG
category 2

Next:
Please report the category associated with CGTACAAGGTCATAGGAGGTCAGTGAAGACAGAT , nothing else.
category 3

###

# Test system: RARg homodimer (NR concentration 270 nM)
# test.name: PBM binding z-score (relative to random genomic background probes); higher = stronger binding; sequences stand for … in GC…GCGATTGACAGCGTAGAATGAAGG
Output Met for PBM binding z-score not less than 2; output Not met otherwise.

Please review the following examples before continuing.
Check if PBM binding z-score >= 2 (inclusive). Item: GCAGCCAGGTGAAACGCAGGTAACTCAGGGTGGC
Not met

Is the recorded value of PBM binding z-score equal to or greater than 2 for this sequence? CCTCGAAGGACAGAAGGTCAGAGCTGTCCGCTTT
Met

In plain terms: is recorded PBM binding z-score at least 2 for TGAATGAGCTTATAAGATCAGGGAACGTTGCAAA ?
Not met

Please indicate if the recorded PBM binding z-score for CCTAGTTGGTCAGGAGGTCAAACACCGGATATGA meets or exceeds 2.
Met

API: above_or_equal(metric=PBM binding z-score, cutoff=2) for item GCTAGCAGGCCATGTGGGTCACTCAATGACGGGC
Not met

---
Dear colleague, could you confirm whether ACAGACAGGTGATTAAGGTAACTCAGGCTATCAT has PBM binding z-score at or above 2?
Not met

Could you tell me if the measured PBM binding z-score of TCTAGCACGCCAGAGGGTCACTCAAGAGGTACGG reaches 2 or more?
Not met

Could you please find out whether TCATATAGGTAAATGCTAGGTGAAAGGCCGATCT has PBM binding z-score that meets 2 or exceeds it?
Not met

In plain terms: is recorded PBM binding z-score at least 2 for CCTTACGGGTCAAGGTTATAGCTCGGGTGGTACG ?
Met

Assess whether reported PBM binding z-score for AATACAGGGTCATCGTAGGCCAGAGTGCGCACAG sits at 2 or higher.
Met

Check the entry ATCTCGAGGTAACAAGTTCAGTGAAAGAGAGGAC : does PBM binding z-score equal or exceed 2?
Not met

Would you say AGACCGAGGGCAATGAGTTGATAGCACGGGTGGC shows PBM binding z-score at minimum 2?
Not met
